Values were extracted from patent US20200405852A1.

Target: T1, activated human complement C1s (human, UniProt P09871 16-688)
T1 construct: also called aC1s; active C1s
T1 sequence: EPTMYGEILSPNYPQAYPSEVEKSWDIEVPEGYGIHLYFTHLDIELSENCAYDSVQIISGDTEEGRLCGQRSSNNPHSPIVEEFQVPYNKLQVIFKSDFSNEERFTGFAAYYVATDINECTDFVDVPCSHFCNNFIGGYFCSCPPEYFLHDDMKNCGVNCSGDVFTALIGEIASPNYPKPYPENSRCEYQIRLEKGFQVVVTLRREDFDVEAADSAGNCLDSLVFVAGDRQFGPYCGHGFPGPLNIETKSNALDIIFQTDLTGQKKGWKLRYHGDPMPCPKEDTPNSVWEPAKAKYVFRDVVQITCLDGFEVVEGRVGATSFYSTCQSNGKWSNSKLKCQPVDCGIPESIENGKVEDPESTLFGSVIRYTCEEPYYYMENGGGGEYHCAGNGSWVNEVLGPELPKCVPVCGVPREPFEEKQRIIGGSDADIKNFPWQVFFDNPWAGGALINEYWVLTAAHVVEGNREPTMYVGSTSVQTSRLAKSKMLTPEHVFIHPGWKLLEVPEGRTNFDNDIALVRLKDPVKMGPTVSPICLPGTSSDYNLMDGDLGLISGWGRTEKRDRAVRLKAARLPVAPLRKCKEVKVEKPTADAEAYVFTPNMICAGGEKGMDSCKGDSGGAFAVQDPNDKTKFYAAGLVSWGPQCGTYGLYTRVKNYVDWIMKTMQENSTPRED
Assay: direct binding of antibody to activated C1s (aC1s); assay format not stated
Catalogue of EC50 values
Dear colleague, please return just the value in nM, with no unit written.

| Binder | Uom | EC50 |
| --- | --- | --- |
| humanized TNT005 variant VH variant 3+Vk variant 5 (antibody, V domains shown, also called VH variant 3 + VL variant 5) VH: QVQLVQSGAEVKKPGASVKLSCTASGFNIKDDYIHWVKQAPGQGLEWIGRIDPADGHTKYAPKFQVKVTITADTSTSTAYLELSSLRSEDTAVYYCARYGYGREVFDYWGQGTTVTVSS VL: DIVLTQSPDSLAVSLGERATISCKASQSVDYDGDSYMNWYQQKPGQPPKLLIYDASNLESGIPARFSGSGSGTDFTLTISSLEPEDFAVYYCQQSNEDPWTFGGGTKVEIK | nM | 0.138 |
| humanized TNT005 variant VH variant 3+Vk variant 1 (antibody, V domains shown, also called VH variant 3 + VL variant 1) VH: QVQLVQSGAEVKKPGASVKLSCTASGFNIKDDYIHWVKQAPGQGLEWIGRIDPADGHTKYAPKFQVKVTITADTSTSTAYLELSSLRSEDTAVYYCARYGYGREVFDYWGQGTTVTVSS VL: DIVLTQSPDSLAVSLGERATISCKASQSVDYDGDSYMNWYQQKTGQPPKILIYDASNLESGIPARFSGSGSGTDFTLTISSLEEEDFAIYYCQQSNEDPWTFGGGTKVEIK | nM | 0.168 |
| humanized TNT005 variant VH variant 1+Vk variant 1 (antibody, V domains shown, also called VH variant 1 + VL variant 1) VH: EVQLVQSGAELKKPGASVKLSCTASGFNIKDDYIHWVKQAPGQGLEWIGRIDPADGHTKYAPKFQVKATITADTSTNTAYLQLSSLTSEDTAVYYCARYGYGREVFDYWGQGTTVTVSS VL: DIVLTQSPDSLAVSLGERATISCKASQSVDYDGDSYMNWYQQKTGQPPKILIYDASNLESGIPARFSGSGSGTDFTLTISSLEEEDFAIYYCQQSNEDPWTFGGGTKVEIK | nM | 0.201 |

Specify EC50 for humanized TNT005 variant VH variant 5+Vk variant 2 (antibody, V domains shown, also called VH variant 5 + VL variant 2) VH: QVQLVQSGAEVKKPGASVKVSCAASGFNIKDDYIHWVRQAPGQGLEWIGRIDPADGHTKYAPKFQVKVTITADTSTSTAYMELSSLRSEDTAVYYCARYGYGREVFDYWGQGTTVTVSS VL: DIVLTQSPDSLAVSLGERATISCKASQSVDYDGDSYMNWYQQKPGQPPKILIYDASNLESGIPARFSGSGSGTDFTLTISSLEPEDFAIYYCQQSNEDPWTFGGGTKVEIK and stop.
0.164

Give reported EC50 value for humanized TNT005 variant VH variant 5+Vk variant 1 (antibody, V domains shown, also called VH variant 5 + VL variant 1) VH: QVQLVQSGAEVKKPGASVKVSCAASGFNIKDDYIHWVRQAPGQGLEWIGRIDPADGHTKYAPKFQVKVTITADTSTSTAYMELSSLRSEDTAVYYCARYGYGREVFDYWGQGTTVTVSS VL: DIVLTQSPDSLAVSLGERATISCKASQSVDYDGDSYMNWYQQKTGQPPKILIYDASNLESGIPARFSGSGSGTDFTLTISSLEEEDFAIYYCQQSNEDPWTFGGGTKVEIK
0.113
